Hello, the source for this data is patent US20220259593A1, in case you need it.

# Test system: K562 CRISPRi cells
# protocol.description: Perturb-seq pooled growth measurement (sgRNA counts, growth phenotype γ, relative activity)
# Type: cell-based, human
# setup.conditions: γ relative to perfectly matched sgRNA (_00) of the same gene, day 5
Reported relative_activity_day5 values follow for various substances
Returns: the value as a bare number; no unit string appended.

Below, 3 substances whose answers are already recorded.
1. RPS14_ + _149829238.23-P1P2_13 (guide GAGGCCCGGGCGCGACAGTC; listed as DNA, chemistry not fully specified)	0.268
2. RAN_ + _131356438.23-P1P2_00 (guide GGCGGTCGCTGCGCTTAGGG; listed as DNA, chemistry not fully specified)	1
3. ATP5E_ −_57607036.23-P1P2_01 (guide GGTGTCCTGGGGCACTCTGT; listed as DNA, chemistry not fully specified)	1.185

Asked: Check the records and state relative_activity_day5 for TUBB_ + _30688126.23-P1_10 (guide GCGGCAGGAAGGTTCAGAGA; listed as DNA, chemistry not fully specified)
Given back: 0.2205

Asked: Check the records and state relative_activity_day5 for GATA1_ −_48645022.23-P1P2_00 (guide GTGAGCTTGCCACATCCCCA; listed as DNA, chemistry not fully specified)
Given back: 1

Asked: Check the records and state relative_activity_day5 for HSPA5_ + _128003624.23-P1P2_04 (guide GAGCCGAGAAGGCGACGGTG; listed as DNA, chemistry not fully specified)
Given back: 1.009

Asked: Check the records and state relative_activity_day5 for HSPA5_ + _128003624.23-P1P2_01 (guide GAACCGAGTAGGCGACGGTG; listed as DNA, chemistry not fully specified)
Given back: 0.8525

Asked: Check the records and state relative_activity_day5 for RPS18_ + _33239917.23-P1P2_04 (guide GCTGCGATCCCGCTGGATCA; listed as DNA, chemistry not fully specified)
Given back: 0.1065
